pIC50: −log10 of the molar value.
Ok so here's the combined literature set: pIC50 for Tyrosine-protein phosphatase non-receptor type 11 (Homo sapiens, UniProt Q06124).

{"molecule": "CCOC(=O)COC(=O)/C(C)=C\\C(C)=C\\c1csc([C@H](Cc2ccc(OCc3ccccc3)cc2)NC(=O)[C@H](Cc2c[nH]c3ccccc23)NC(C)=O)n1", "pIC50": "< 4.70"}

Task item: Identify measured pIC50 corresponding to Cc1cccc(-c2cccc(-c3noc(Cc4c[nH]c5ccccc45)n3)n2)c1
Reply: < 3.92

Task item: Please give the documented pIC50 of CO[C@H]1O[C@H](Cn2cc(COC[C@H](NC(=O)OC(C)(C)C)C(=O)O)nn2)[C@H](OCc2ccccc2)[C@H](OCc2ccccc2)[C@H]1OCc1ccccc1
Reply: < 3.92

Task item: Annotate the molecule CCCc1ccc(-c2ccc(-c3noc(Cc4c[nH]c5ccccc45)n3)s2)cc1 with its measured pIC50.
Reply: < 3.92

Task item: Give pIC50 for the following molecule: CC[C@H](C)[C@H](NC(=O)[C@H](CCC(=O)O)NC(=O)[C@H](CCC(=O)O)NC(=O)[C@@H](Cc1ccc(OP(=O)(O)O)cc1)NC(C)=O)C(=O)N[C@@H](CCC(=O)O)C(=O)O
Reply: < 4.00
